# Tested on: SC27B
# PROCEDURE TEXT: qHTS profiling for inhibitors of Plasmodium falciparum proliferation (AID 504749); note: nearly all actives have a fitted effect of over 60% in size
# RUN PARAMETERS: P. falciparum in erythrocytes, SYBR Green DNA, 72 h; series mostly up to 12.8 µM
# Procedure: NIH National Institute of Allergy and Infectious Diseases [NIAID] NIH Chemical Genomics Center [NCGC] […] Because mature erythrocytes lack DNA, only Plasmodium-derived DNA is detected. NCGC Assay Protocol Summary: The SYBR Green viability assay was adapted from a method described previously (Plouffe et al., 2008). […] The following morning, fluorescence intensity at 485(14) nm excitation and 535(25) nm emission wavelengths was measured on an EnVision (Perkin Elmer) plate reader. […]
Records with an inconclusive call do not appear. Activity calls are given as the source filed them. Calls come from the whole dose curve; as a rule, active = well fitted inhibition curve with a large enough effect; inconclusive = small, poorly fitted or top-dose-only effect; inactive = flat fitted curve, though single readings scatter.
OUTCOME MEASURE: outcome

Record excerpt, results attached:
CC(=O)OCC(=O)[C@@]1(O)CC[C@@H]2[C@H]3CCC4=CC(=O)C=C[C@]4(C)[C@]3(F)[C@@H](O)C[C@@]21C ... inactive
O=C(NC[C@@H](O)CO)c1c(I)c(C(=O)NC[C@@H](O)CO)c(I)c(N(CCO)C(=O)CO)c1I ... inactive
CC(=O)N(C[C@@H](C)C(=O)O)c1c(I)cc(I)c(N)c1I ... inactive
C[C@@H]1O[C@H](O[C@@H]2\C=C/C=C\C=C/C=C\C[C@H](C)OC(=O)/C=C\[C@H]3O[C@@H]3C[C@H](O)C[C@]3(O)C[C@@H](O)[C@@H](C(=O)O)[C@H](C2)O3)[C@@H](O)[C@H](N)[C@@H]1O (stereo in doubt) ... inactive

Asked: I am curious: what outcome value has been reported for CCCCC[C@H](O)/C=C\[C@@H]1[C@H](O)CC(=O)[C@@H]1CCCCCCC(=O)O ?
Given back: inactive

Asked: I am curious: what outcome value has been reported for COc1cc2nc(N3CCN(C(=O)[C@@H]4CCCO4)CC3)nc(N)c2cc1OC ?
Given back: inactive

Asked: I am curious: what outcome value has been reported for CN1CCC[C@@H](CC2c3ccccc3Sc3ccccc32)C1 ?
Given back: inactive

Asked: I am curious: what outcome value has been reported for C[C@@]12CCC(=O)C=C1C=CC1C2CC[C@]2(C)C1CC[C@@]21CCC(=O)O1 (stereo partly drawn) ?
Given back: inactive

Asked: I am curious: what outcome value has been reported for CC(C)=CCC[C@](C)(O)C1CC=C(C)CC1 (stereo partly drawn) ?
Given back: inactive

Asked: I am curious: what outcome value has been reported for CC1(C)O[C@@H]2C[C@H]3[C@H]4C[C@H](F)C5=CC(=O)CC[C@]5(C)[C@@H]4[C@H](O)C[C@]3(C)[C@]2(C(=O)CO)O1 ?
Given back: inactive

Asked: I am curious: what outcome value has been reported for O[C@@](CCN1CCCC1)(c1ccccc1)C1CCCCC1 ?
Given back: inactive

Asked: I am curious: what outcome value has been reported for C[C@@]12C=CC(=O)C=C1CCC1C3CC(O)[C@@](O)(C(=O)CO)[C@]3(C)CC(O)[C@]12F (stereo partly drawn) ?
Given back: inactive

Asked: I am curious: what outcome value has been reported for CO[C@]1(NC(=O)[C@H](C(=O)O)c2ccc(O)cc2)C(=O)N2C(C(=O)O)=C(CSc3nnnn3C)CO[C@H]21 ?
Given back: inactive

----------
# System: N140
# PROCEDURE TEXT: qHTS profiling for inhibitors of Plasmodium falciparum proliferation (AID 504749); note: nearly all actives have a fitted effect of over 60% in size
# RUN PARAMETERS: P. falciparum in erythrocytes, SYBR Green DNA, 72 h; series mostly up to 12.8 µM
Inconclusive results are not listed. Activity calls are given as the source filed them. The call rests on the fitted dose curve; in most records, active means well fitted inhibition curve with a large enough effect; inconclusive means small, poorly fitted or top-dose-only effect; inactive means flat fitted curve, though single readings scatter.
Would you mind answering with one of these outcomes? active, inactive

Asked: Test call, this molecule: COc1c(O[C@H]2O[C@@H](CO)[C@@H](O)[C@@H](O)[C@@H]2O)cc2c(c1OC)-c1ccc(SC)c(=O)cc1[C@H](NC(C)=O)CC2
Given back: inactive

Asked: Test call, this molecule: COc1cc2nc(N3CCN(C(=O)[C@@H]4CCCO4)CC3)nc(N)c2cc1OC
Given back: inactive

Asked: Test call, this molecule: COc1ccc(-c2cc(=O)c3c(O)cc(O[C@H]4OC(COC5OC(C)C(O)C(O)[C@H]5O)C(O)C(O)C4O)cc3o2)cc1O (some centres undefined)
Given back: inactive

Asked: Test call, this molecule: C[C@H]1CC[C@]2(OC1)O[C@@H]1C[C@@H]3[C@@H]4CC[C@H]5C[C@@H](O)CC[C@]5(C)[C@@H]4CC(=O)[C@@]3(C)[C@H]1[C@@H]2C
Given back: inactive

Asked: Test call, this molecule: CC1(C)[C@@H](OC(=O)CCC(=O)O)CC[C@@]2(C)[C@H]1CC[C@@]1(C)[C@H]2C(=O)C=C2[C@H]3C[C@](C)(C(=O)O)CC[C@]3(C)CC[C@@]21C
Given back: inactive

Asked: Test call, this molecule: COc1ccc2c(c1)N(C[C@@H](C)CN(C)C)c1ccccc1S2
Given back: inactive

Asked: Test call, this molecule: N[C@@H]1C(O)OC(CO)C(O)C1O (some centres undefined)
Given back: inactive

Asked: Test call, this molecule: CCC(C)(C)C(=O)O[C@@H]1C[C@H](C)C=C2C=C[C@H](C)[C@@H](CC[C@H]3C[C@@H](O)CC(=O)O3)[C@H]21
Given back: inactive

Asked: Test call, this molecule: CCN[C@@H]1CN(CCCOC)S(=O)(=O)c2sc(S(N)(=O)=O)cc21
Given back: inactive

Asked: Test call, this molecule: CC1=C(C(=O)O)N2C(=O)[C@@H](NC(=O)[C@@H](N)c3ccc(O)cc3)[C@@H]2SC1
Given back: inactive

Asked: Test call, this molecule: CCc1c(C)[nH]c2c1C(=O)[C@H](CN1CCOCC1)CC2
Given back: inactive

Asked: Test call, this molecule: CC1(C)OC2CC(=O)OC[C@@]23C1CC(=O)[C@]1(C)C3CC[C@@]2(C)C(c3ccoc3)OC(=O)C3O[C@@]321 (some centres undefined)
Given back: inactive

Asked: Test call, this molecule: COc1ccccc1OC[C@H](O)CO
Given back: inactive

Asked: Test call, this molecule: NC(CCC(=O)N[C@@H](CS)C(=O)NCC(=O)O)C(=O)O (some centres undefined)
Given back: active

Asked: Test call, this molecule: NS(=O)(=O)c1cc2c(cc1Cl)N[C@@H](C(Cl)Cl)NS2(=O)=O
Given back: inactive

Asked: Test call, this molecule: CCOC(=O)C1=CC(OC(CC)CC)C(NC(C)=O)C(N)C1 (centres undefined)
Given back: inactive

Asked: Test call, this molecule: CC(C)Oc1ccc2c(=O)cc(-c3ccccc3)oc2c1
Given back: inactive

Asked: Test call, this molecule: CC(=O)O[C@H]1C[C@@]2(C)[C@H](C[C@@H](O)[C@H]3[C@@]4(C)CC[C@@H](O)[C@@H](C)[C@H]4CC[C@@]32C)C1=C(CCC=C(C)C)C(=O)O
Given back: inactive

Asked: Test call, this molecule: CC(=O)[C@]1(O)CCC2C3C=C(Cl)C4=CC(=O)C5CC5[C@@]4(C)C3CC[C@]21C (some centres undefined)
Given back: inactive

Asked: Test call, this molecule: CO[C@H]1[C@H](O[C@H]2O[C@@H](C)[C@@H](O[C@@H]3C[C@](C)(O)[C@H](O)[C@H](C)O3)[C@@H](N(C)C)[C@@H]2O)[C@@H](CC=O)C[C@@H](C)[C@@H](O[C@H]2CC[C@H](N(C)C)[C@H](C)O2)/C=C\C=C/C[C@@H](C)OC(=O)C[C@H]1O
Given back: inactive

Asked: Test call, this molecule: CC[C@](C)(CN(C)C)OC(=O)c1ccccc1
Given back: inactive

Asked: Test call, this molecule: CCC(=O)O[C@@]1(C(=O)SCF)[C@@H](C)C[C@H]2[C@@H]3C[C@@H](F)C4=CC(=O)C=C[C@@]4(C)[C@]3(F)[C@@H](O)C[C@]21C
Given back: active

Asked: Test call, this molecule: C[C@H](C(=O)O)c1cccc(Oc2ccccc2)c1
Given back: inactive

Asked: Test call, this molecule: C[C@@H]1C[C@H]2[C@@H]3C[C@H](F)C4=CC(=O)C=C[C@@]4(C)[C@]3(F)[C@H](O)C[C@]2(C)[C@@]1(O)C(=O)CO
Given back: inactive

Asked: Test call, this molecule: C[C@@H](C(=O)O)c1ccc(C(=O)c2ccccc2)s1
Given back: inactive

Asked: Test call, this molecule: CC1(C)SC2C(N3C(=O)C(c4ccccc4)NC3(C)C)C(=O)N2C1C(=O)O (centres undefined)
Given back: inactive

Asked: Test call, this molecule: COC(=O)N/N=C/C1=C[N+](=O)c2ccccc2[N+]1=O
Given back: inactive

Asked: Test call, this molecule: CN1CC(=O)N=C1N
Given back: inactive

Asked: Test call, this molecule: COc1cc(C2c3cc4c(cc3C(O[C@@H]3OC5COC(c6cccs6)OC5C(O)C3O)C3COC(=O)C23)OCO4)cc(OC)c1O (some centres undefined)
Given back: active
